The values you see were collected from ChEMBL document CHEMBL1154617.

Target: 17-beta-hydroxysteroid dehydrogenase type 1 (Homo sapiens) (UniProt P14061)
Sequence (whole entry): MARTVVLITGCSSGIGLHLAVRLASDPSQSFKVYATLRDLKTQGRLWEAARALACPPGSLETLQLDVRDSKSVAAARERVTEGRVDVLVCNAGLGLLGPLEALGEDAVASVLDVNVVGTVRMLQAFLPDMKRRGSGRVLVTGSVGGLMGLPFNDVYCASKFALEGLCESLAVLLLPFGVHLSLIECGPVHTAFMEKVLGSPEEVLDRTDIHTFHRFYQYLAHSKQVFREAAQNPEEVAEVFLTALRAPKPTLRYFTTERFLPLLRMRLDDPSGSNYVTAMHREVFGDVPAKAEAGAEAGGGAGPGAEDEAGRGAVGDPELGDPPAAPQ
Experiment: Inhibition of human recombinant 17beta-HSD1 at 1 uM by cell-free assay
Type: single protein
What inhibition was measured for each of the following?
The reply should be a number in %, with the unit left off.

Value of inhibition reported for the molecule O=C1CCCc2c1sc1nc3n(c(=O)c21)CCCC3 is 3.8

Per the records, this molecule ( CCCSC1=C(C=O)CCc2c1sc1nc3n(c(=O)c21)CCCCCC3 ) has inhibition equal to 74.7

Item: O=c1c2c3c(sc2nc2n1CCCCC2)C(Cl)=C(CO)CC3 | inhibition: 39.9

Measured inhibition of CCCSC1=C(C=O)CCc2c1sc1nc3n(c(=O)c21)CCCCC3 : 95.2

inhibition for O=c1c2c(nc3n1CCCCC3)sc1c(Sc3ccccc3)c(CO)ccc12 is 87.5

Note to self: inhibition recorded for O=c1c2c3c(sc2nc2n1CCCCC2)C(Cl)=C(/C=N/O)CC3 was 17.9

Entry under test: O=CC1=C(SCc2ccccc2)c2sc3nc4n(c(=O)c3c2CC1)CCCCC4 . Its inhibition was 30.7

Entry O=Cc1ccc2c(sc3nc4n(c(=O)c32)CCCCC4)c1Sc1ccccc1 ; inhibition = 88.4

So, O=CC1=C(SC2CCCC2)c2sc3nc4n(c(=O)c3c2CC1)CCCCC4 ? Its inhibition was 87.4

For reference, reported inhibition for O=CC1=C(Sc2ccc3ccccc3c2)c2sc3nc4n(c(=O)c3c2CC1)CCCCC4 stands at 64

Lab note: measured inhibition of O=c1c2c3c(sc2nc2n1CCCCC2)CCCC3 was 23.2

Please fill in: inhibition reported for O=CC1=C(Sc2ccc(F)cc2)c2sc3nc4n(c(=O)c3c2CC1)CCCCC4 = 91.9

The recorded inhibition for entry O=CC1=C(SC2CCCCC2)c2sc3nc4n(c(=O)c3c2CC1)CCCCC4 equals 82.2

* * *

Target: 17-beta-hydroxysteroid dehydrogenase type 1 (Homo sapiens) (UniProt P14061)
Sequence (whole entry): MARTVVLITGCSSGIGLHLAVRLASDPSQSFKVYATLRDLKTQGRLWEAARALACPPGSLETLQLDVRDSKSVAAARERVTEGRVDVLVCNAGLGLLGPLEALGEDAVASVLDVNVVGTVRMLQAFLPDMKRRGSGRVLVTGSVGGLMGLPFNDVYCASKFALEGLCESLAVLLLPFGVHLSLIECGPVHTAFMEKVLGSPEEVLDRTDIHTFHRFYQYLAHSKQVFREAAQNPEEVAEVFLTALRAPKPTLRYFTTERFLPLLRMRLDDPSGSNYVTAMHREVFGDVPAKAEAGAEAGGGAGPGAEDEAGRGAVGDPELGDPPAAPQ
Assay: Inhibition of human recombinant 17beta-HSD1 expressed in human MCF7 cells at 0.1 uM by cell-based assay
Classification field: enter Condition met for inhibition values not below 20%, Condition not met for values below it.

Task: Does inhibition meet or surpass 20% for CCCSC1=C(/C=C/C(C)=O)CCc2c1sc1nc3n(c(=O)c21)CCCCC3 ?
Output: Condition not met

Task: Record O=CC1=C(SC2CCCCC2)c2sc3nc4n(c(=O)c3c2CC1)CCCCC4 ; criterion: inhibition no lower than 20%. Met?
Output: Condition met

Task: Test whether the compound CCCSc1c(C=O)ccc2c1sc1nc3n(c(=O)c12)CCCCC3 records inhibition of 20% or higher.
Output: Condition met

Task: For this compound, is measured inhibition 20% or higher? O=CC1=C(Sc2ccc(F)cc2)c2sc3nc4n(c(=O)c3c2CC1)CCCCC4
Output: Condition not met

Task: Could you tell me if the measured inhibition of O=Cc1ccc2c(sc3nc4n(c(=O)c32)CCCCC4)c1Sc1ccccc1 reaches 20% or more?
Output: Condition not met

Task: Is it the case that O=c1c2c3c(sc2nc2n1CCCCC2)C(Cl)=C(/C=N/O)CC3 has inhibition reaching or exceeding 20%?
Output: Condition not met

Task: # bool: inhibition of O=c1c2c(nc3n1CCCCC3)sc1c(Sc3ccccc3)c(CO)ccc12 >= 20%
Output: Condition met

Task: Determine whether this compound has inhibition no lower than 20%: O=CC1=C(Sc2ccccc2O)c2sc3nc4n(c(=O)c3c2CC1)CCCCC4
Output: Condition not met

Task: Say whether CCCCSC1=C(C=O)CCc2c1sc1nc3n(c(=O)c21)CCCCC3 shows inhibition of 20% or more.
Output: Condition met
